# assay-system: c-Myc/Max/Ebox DNA (Homo sapiens, UniProt P01106)
# Construct: his6 (cleaved yes)
# Sequence (P01106 whole entry): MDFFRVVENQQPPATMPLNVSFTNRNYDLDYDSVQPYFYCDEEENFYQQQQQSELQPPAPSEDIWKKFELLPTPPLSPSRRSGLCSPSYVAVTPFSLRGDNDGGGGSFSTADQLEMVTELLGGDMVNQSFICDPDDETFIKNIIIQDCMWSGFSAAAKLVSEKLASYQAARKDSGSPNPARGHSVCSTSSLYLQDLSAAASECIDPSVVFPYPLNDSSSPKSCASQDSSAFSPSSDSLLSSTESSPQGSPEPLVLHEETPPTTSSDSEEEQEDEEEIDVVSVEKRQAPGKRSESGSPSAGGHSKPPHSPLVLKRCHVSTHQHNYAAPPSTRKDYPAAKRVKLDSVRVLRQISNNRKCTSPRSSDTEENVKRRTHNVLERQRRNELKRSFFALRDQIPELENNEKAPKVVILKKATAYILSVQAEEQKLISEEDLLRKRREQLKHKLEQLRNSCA
# protocol-summary: c-Myc/Max/Ebox DNA AlphaScreen Assay
# conditions-used: free c-Myc 20 nM, his6-Max 5 nM, biotinylated Ebox oligo 10 nM, 2 hour incubation
Counter-ions that a name gives are not always drawn.

{"columns": ["compound", "IC50"],
 "data": [
  ["C[C@H]1Cc2c(sc(NC(=O)CCN[C@@H]3C[C@H]4CNC[C@H]4C3)c2-c2nc3cnccc3s2)CN1", "5000 to 25000 nM"],
  ["O=C(CCN1CCCC12CNC2)Nc1sc2c(c1-c1nc3cnccc3s1)CCNC2", "< 500 nM"],
  ["O=C(CCN[C@H]1CC[C@@H](O)C1)Nc1sc2c(c1-c1nc3cnccc3s1)CCNC2", "< 500 nM"],
  ["CCN1[C@H](C)c2sc(NC(C)=O)c(-c3nc4cnccc4s3)c2C[C@@H]1C", "< 500 nM"],
  ["O=C(CCN1CCC2OCCC2C1)Nc1sc2c(c1-c1nc3cnccc3s1)CCNC2 (centres unmarked)", "< 500 nM"],
  ["O=C(CCNCCN1CCCCC1=O)Nc1sc2c(c1-c1nc3cnccc3s1)CCNC2", "< 500 nM"],
  ["CC(=O)Nc1sc2c(c1-c1nc3cnccc3s1)CNC2", "500 to 5000 nM"],
  ["CC(=O)Nc1sc2c(c1-c1nc3c(C)nccc3s1)CCNC2", "< 500 nM"],
  ["COCCNCCC(=O)Nc1sc2c(c1-c1nc3c(C)nc(C)cc3s1)CCNC2 [Compound 227, dihydrochloride]", "< 500 nM"],
  ["O=C(CCN1CC2(CNC2)C1)Nc1sc2c(c1-c1nc3cnccc3s1)CCNC2", "< 500 nM"],
  ["CC[C@H](C)NCCC(=O)Nc1sc2c(c1-c1nc3cnccc3s1)CCN(C(C)C)C2", "< 500 nM"],
  ["CC1CC(NCCC(=O)Nc2sc3c(c2-c2nc4cnccc4s2)CCNC3)C1 (centres unmarked)", "< 500 nM"],
  ["CC1(C#N)CN(CCC(=O)Nc2sc3c(c2-c2nc4cnccc4s2)CCNC3)C1", "500 to 5000 nM"],
  ["O=C(CCN1CCCOCC1)Nc1sc2c(c1-c1nc3cnccc3s1)CCNC2", "< 500 nM"],
  ["O=C(CCNC[C@H]1CC2(CCNCC2)CO1)Nc1sc2c(c1-c1nc3cnccc3s1)CCNC2", "< 500 nM"],
  ["CCN1[C@H](C)Cc2c(sc(NC(C)=O)c2-c2nc3cnccc3s2)[C@H]1C", "< 500 nM"],
  ["O=C(CCNCC1CCC1)Nc1sc2c(c1-c1nc3cnccc3s1)CCNC2", "< 500 nM"],
  ["CC(NCCC(=O)Nc1sc2c(c1-c1nc3cnccc3s1)CCNC2)c1ncc[nH]1 (centres unmarked)", "< 500 nM"],
  ["COCC1CCCCN1CCC(=O)Nc1sc2c(c1-c1nc3cnccc3s1)CCNC2 (centres unmarked)", "< 500 nM"],
  ["O=C(CCN1CCC2(CC2)C1)Nc1sc2c(c1-c1nc3cnccc3s1)CCNC2", "< 500 nM"]
]}

---

# assay-system: c-Myc/Max/Ebox DNA (Homo sapiens, UniProt P01106)
# Construct: his6 (cleaved yes)
# protocol-summary: c-Myc/Max/Ebox DNA AlphaScreen Assay
# conditions-used: free c-Myc 20 nM, his6-Max 5 nM, biotinylated Ebox oligo 10 nM, 2 hour incubation
Where a name gives a salt, the structure may show the parent alone.
readout-kind: IC50

{"columns": ["compound", "result"],
 "data": [
  ["COCCNCCC(=O)Nc1sc2c(c1-c1nc3cnc(Cl)cc3s1)CCNC2", "< 500 nM"],
  ["CC(=O)Nc1sc2c(c1-c1nc3c[n+]([O-])ccc3s1)CCNC2", "500 to 5000 nM"],
  ["O=C(CCNCC1CCNC1)Nc1sc2c(c1-c1nc3cnccc3s1)CCNC2 (stereo not drawn)", "< 500 nM"],
  ["CC(=O)Nc1sc2c(c1-c1nc3cnccc3s1)CCC(N)C2 (stereo not drawn)", "500 to 5000 nM"],
  ["CC[C@H](C)NCCC(=O)Nc1sc2c(c1-c1nc3cnccc3s1)CCNC2", "< 500 nM"],
  ["O=C(CCN[C@H]1CC[C@H](O)C1)Nc1sc2c(c1-c1nc3cnccc3s1)CCNC2", "< 500 nM"],
  ["CCN1[C@H](C)Cc2c(sc(NC(C)=O)c2-c2nc3cnccc3s2)[C@@H]1C", "> 25000 nM"],
  ["Cc1nc(C)c(CNCCC(=O)Nc2sc3c(c2-c2nc4cnccc4s2)CCNC3)s1", "500 to 5000 nM"],
  ["O=C(CCN[C@H]1[C@@H]2CNC[C@@H]21)Nc1sc2c(c1-c1nc3cnccc3s1)CCNC2", "< 500 nM"],
  ["O=C(CCN1CCC(c2ccc(Cl)cc2)CC1)Nc1sc2c(c1-c1nc3cnccc3s1)CCNC2", "500 to 5000 nM"],
  ["O=C(CCN1CC(C(=O)O)C1)Nc1sc2c(c1-c1nc3cnccc3s1)CCNC2", "< 500 nM"],
  ["O=C(CCNCc1ccn[nH]1)Nc1sc2c(c1-c1nc3cnccc3s1)CCNC2", "< 500 nM"],
  ["O=C(CCN1CCn2nccc2C1)Nc1sc2c(c1-c1nc3cnccc3s1)CCNC2", "500 to 5000 nM"],
  ["Cc1cc2sc(-c3c(NC(=O)CCNC(C)C)sc4c3CCNC4)nc2c(C)n1 [Compound 225, dihydrochloride]", "< 500 nM"],
  ["CC(=O)Nc1sc2c(c1-c1nc3cnccc3s1)CCN(CCN)C2 [Compound 121, hydrochloride]", "500 to 5000 nM"],
  ["CC(=O)Nc1sc2c(c1-c1nc3cccnc3s1)CCNC2", "500 to 5000 nM"],
  ["CC(=O)Nc1sc2c(c1-c1nc3cnccc3s1)CCN(C(C)CN1CCOCC1)C2 (stereo not drawn)", "500 to 5000 nM"],
  ["CN1CCN(CCC(=O)Nc2sc3c(c2-c2nc4cnccc4s2)CCNC3)CC1=O", "500 to 5000 nM"],
  ["O=C(CCNCc1ccno1)Nc1sc2c(c1-c1nc3cnccc3s1)CCNC2", "< 500 nM"],
  ["O=C(CCN1CC2(C1)CS(=O)(=O)C2)Nc1sc2c(c1-c1nc3cnccc3s1)CCNC2", "500 to 5000 nM"],
  ["O=C(CCNC1CCOC1)Nc1sc2c(c1-c1nc3cnccc3s1)CCNC2 (stereo not drawn)", "< 500 nM"],
  ["O=C(CCNCc1[nH]nc2c1CNC2)Nc1sc2c(c1-c1nc3cnccc3s1)CCNC2", "< 500 nM"],
  ["O=C(CCNC1CCC1)Nc1sc2c(c1-c1nc3cnccc3s1)CCNC2", "< 500 nM"],
  ["NC(=O)C1(CNCCC(=O)Nc2sc3c(c2-c2nc4cnccc4s2)CCNC3)CCOCC1", "< 500 nM"],
  ["O=C(CCN1CCCCC12CNC2)Nc1sc2c(c1-c1nc3cnccc3s1)CCNC2", "500 to 5000 nM"],
  ["COC(=O)CCCNCCC(=O)Nc1sc2c(c1-c1nc3cnccc3s1)CCNC2", "< 500 nM"],
  ["CCN1Cc2sc(NC(C)=O)c(-c3nc4cnccc4s3)c2C[C@@H]1C", "500 to 5000 nM"],
  ["O=C(CCNCc1noc2c1CNCC2)Nc1sc2c(c1-c1nc3cnccc3s1)CCNC2", "500 to 5000 nM"],
  ["CC(C)C[C@H](CO)NCCC(=O)Nc1sc2c(c1-c1nc3cnccc3s1)CCNC2", "< 500 nM"],
  ["O=C(CCNCc1cscn1)Nc1sc2c(c1-c1nc3cnccc3s1)CCNC2", "< 500 nM"]
]}

---

# assay-system: c-Myc/Max/Ebox DNA (Homo sapiens)
# Construct: his6 (cleaved yes)
# protocol-summary: c-Myc/Max/Ebox DNA AlphaScreen Assay
# conditions-used: free c-Myc 20 nM, his6-Max 5 nM, biotinylated Ebox oligo 10 nM, 2 hour incubation
Structures can show the parent of a compound that is named as a salt.
Quick reference: IC50 of the listed items.
readout-kind: IC50

{"columns": ["compound", "assay-system", "readout-kind", "result"],
 "data": [
  ["C[15NH]CCC(=O)Nc1sc2c(c1-c1nc3cnccc3s1)CCNC2", "c-Myc/Max/Ebox DNA (Homo sapiens)", "IC50", "< 500 nM"],
  ["O=C(CCN1CCC(OC2CCC2)CC1)Nc1sc2c(c1-c1nc3cnccc3s1)CCNC2", "c-Myc/Max/Ebox DNA (Homo sapiens)", "IC50", "< 500 nM"],
  ["CC[C@H](C)N(CCC(=O)Nc1sc2c(c1-c1nc3cnccc3s1)CCNC2)Cc1ccccc1 [Compound 233, hydrochloride]", "c-Myc/Max/Ebox DNA (Homo sapiens)", "IC50", "5000 to 25000 nM"],
  ["CC(=O)Nc1sc2c(c1-c1nc3cnccc3s1)C[C@H](C)N[C@H]2C (single isomer, unassigned)", "c-Myc/Max/Ebox DNA (Homo sapiens)", "IC50", "< 500 nM"],
  ["CCN1Cc2sc(NC(C)=O)c(-c3nc4cnccc4s3)c2C[C@H]1C", "c-Myc/Max/Ebox DNA (Homo sapiens)", "IC50", "500 to 5000 nM"],
  ["O=C(CCN[C@H]1COC[C@@H]1O)Nc1sc2c(c1-c1nc3cnccc3s1)CCNC2", "c-Myc/Max/Ebox DNA (Homo sapiens)", "IC50", "< 500 nM"]
]}
